Values compiled from patent US20240279318A1.

Catalogue of Affinity increase values
- TESTED_TARGET: T1, AFP158/HLA-A*02:01 complex (human)
- T1 construct: flowed over the chip in SPR; also called AFP158 pro
- ASSAY_INFO: SPR, KD ratio to AS170036 VL1VH1;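 also: crude scFv captured on a sensor chip, peptide–HLA complex passed over at several concentrations, association then buffer dissociation, KD derived from on- and off-rates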
Report only the number, with the unit fold understood.

Guide cases for Affinity increase, answers given:
binder="LD97P (scFv, AS170036 VL1VH1 scFv mutein) scFv: QSALTQPRSVSGSPGQSVTISCAGTSSDVGSENYVSWYQQHPGKAPKLMIYQVNKRASGVPDRFSGSKSGNTASLTISGLQAEDEADYYCASYRSSPHNIVFGGGTKLTVLGGGGSGGGGSGGGGSEVQLVESGGGLVQPGGSLRLSCAASGFTFSSYAMSWVRQAPGKGLEWVSTINSGTGSPYYADSVKGRFTISRDNSKNTLYLQMNSLRAEDTAVYYCAKNFFDGSWFLGPPAMDYWGQGTLVTVSSHHHHHH" result_value=0.3
binder="LE32V (scFv, AS170036 VL1VH1 scFv mutein) scFv: QSALTQPRSVSGSPGQSVTISCAGTSSDVGSVNYVSWYQQHPGKAPKLMIYQVNKRASGVPDRFSGSKSGNTASLTISGLQAEDEADYYCASYRSSDHNIVFGGGTKLTVLGGGGSGGGGSGGGGSEVQLVESGGGLVQPGGSLRLSCAASGFTFSSYAMSWVRQAPGKGLEWVSTINSGTGSPYYADSVKGRFTISRDNSKNTLYLQMNSLRAEDTAVYYCAKNFFDGSWFLGPPAMDYWGQGTLVTVSSHHHHHH" result_value=0.3

// Input: LY34A (scFv, AS170036 VL1VH1 scFv mutein) scFv: QSALTQPRSVSGSPGQSVTISCAGTSSDVGSENAVSWYQQHPGKAPKLMIYQVNKRASGVPDRFSGSKSGNTASLTISGLQAEDEADYYCASYRSSDHNIVFGGGTKLTVLGGGGSGGGGSGGGGSEVQLVESGGGLVQPGGSLRLSCAASGFTFSSYAMSWVRQAPGKGLEWVSTINSGTGSPYYADSVKGRFTISRDNSKNTLYLQMNSLRAEDTAVYYCAKNFFDGSWFLGPPAMDYWGQGTLVTVSSHHHHHH . Output its Affinity increase only.
0.1

// Input: LY93T (scFv, AS170036 VL1VH1 scFv mutein) scFv: QSALTQPRSVSGSPGQSVTISCAGTSSDVGSENYVSWYQQHPGKAPKLMIYQVNKRASGVPDRFSGSKSGNTASLTISGLQAEDEADYYCASTRSSDHNIVFGGGTKLTVLGGGGSGGGGSGGGGSEVQLVESGGGLVQPGGSLRLSCAASGFTFSSYAMSWVRQAPGKGLEWVSTINSGTGSPYYADSVKGRFTISRDNSKNTLYLQMNSLRAEDTAVYYCAKNFFDGSWFLGPPAMDYWGQGTLVTVSSHHHHHH . Output its Affinity increase only.
0.3

// Input: LD97V (scFv, AS170036 VL1VH1 scFv mutein) scFv: QSALTQPRSVSGSPGQSVTISCAGTSSDVGSENYVSWYQQHPGKAPKLMIYQVNKRASGVPDRFSGSKSGNTASLTISGLQAEDEADYYCASYRSSVHNIVFGGGTKLTVLGGGGSGGGGSGGGGSEVQLVESGGGLVQPGGSLRLSCAASGFTFSSYAMSWVRQAPGKGLEWVSTINSGTGSPYYADSVKGRFTISRDNSKNTLYLQMNSLRAEDTAVYYCAKNFFDGSWFLGPPAMDYWGQGTLVTVSSHHHHHH . Output its Affinity increase only.
0.4
